Here, each record is paired with measured tissue uptake at 24 h data.
experiment: in vivo; set-up: species or system mice; conditions: male, NODSCID 1L2RγKO, mouse, iv, total radioactivity, Fat uptake
Quick note: give the figure in %ID/g, leave out the unit.

Study these solved cases before continuing.
COc1ccc(CCCC(=O)NCC(=O)N[C@@H](CCCCNC(=O)CN2CCN(CC(=O)O)CCN(CC(=O)O)CCN(CC(=O)O)CC2)C(=O)NC[C@H]2CC[C@H](C(=O)N[C@@H](Cc3c4ccccc4cc4ccccc34)C(=O)NCCCC[C@H](NC(=O)N[C@@H](COCC(=O)O)C(=O)O)C(=O)O)CC2)cc1 [177Lu-HTK04028, metal not drawn] | 0.14
O=C(O)CCC[C@H](NC(=O)N[C@@H](CCCCNC(=O)[C@H](Cc1c2ccccc2cc2ccccc12)NC(=O)[C@H]1CC[C@H](CNC(=O)[C@H](CCCCNC(=O)CN2CCN(CC(=O)O)CCN(CC(=O)O)CCN(CC(=O)O)CC2)NC(=O)CNC(=O)CCCc2ccc(Cl)cc2)CC1)C(=O)O)C(=O)O [177Lu-HTK03153, metal not drawn] | 0.66
O=C(O)CCC[C@H](NC(=O)N[C@@H](CCCCNC(=O)[C@H](Cc1c2ccccc2cc2ccccc12)NC(=O)[C@H]1CC[C@H](CNC(=O)CN2CCN(CC(=O)O)CCN(CC(=O)O)CCN(CC(=O)O)CC2)CC1)C(=O)O)C(=O)O [177Lu-HTK03149, metal not drawn] | 0.02
COc1ccc(CCCC(=O)NCC(=O)N[C@@H](CCCCNC(=O)CN2CCN(CC(=O)O)CCN(CC(=O)O)CCN(CC(=O)O)CC2)C(=O)NC[C@H]2CC[C@H](C(=O)N[C@@H](Cc3c4ccccc4cc4ccccc34)C(=O)NCCCC[C@H](NC(=O)N[C@@H](CSCC(=O)O)C(=O)O)C(=O)O)CC2)cc1 [177Lu-HTK04048, metal not drawn] | 0.15

Okay, next one:
Q: Output tissue uptake at 24 h of COc1ccc(CCCC(=O)NCC(=O)N[C@@H](CCCCNC(=O)CN2CCN(CC(=O)O)CCN(CC(=O)O)CCN(CC(=O)O)CC2)C(=O)NC[C@H]2CC[C@H](C(=O)N[C@@H](Cc3c4ccccc4cc4ccccc34)C(=O)NCCCC[C@H](NC(=O)N[C@@H](CCCC(=O)O)C(=O)O)C(=O)O)CC2)cc1 [177Lu-HTK03170, metal not drawn]
A: 0.12

---

assay: in vivo; parameters: species or system mice; details: male, NODSCID 1L2RγKO, mouse, iv, total radioactivity, Fat uptake
Here, each record is paired with measured tissue uptake at 72 h data.
Form entry: enter the amount, then its unit.

COc1ccc(CCCC(=O)NCC(=O)N[C@@H](CCCCNC(=O)CN2CCN(CC(=O)O)CCN(CC(=O)O)CCN(CC(=O)O)CC2)C(=O)NC[C@H]2CC[C@H](C(=O)N[C@@H](Cc3c4ccccc4cc4ccccc34)C(=O)NCCCC[C@H](NC(=O)N[C@@H](COCC(=O)O)C(=O)O)C(=O)O)CC2)cc1 [177Lu-HTK04028, metal not drawn] | 0.06 %ID/g

Q: Output tissue uptake at 72 h of O=C(O)CCC[C@H](NC(=O)N[C@@H](CCCCNC(=O)[C@H](Cc1c2ccccc2cc2ccccc12)NC(=O)[C@H]1CC[C@H](CNC(=O)CN2CCN(CC(=O)O)CCN(CC(=O)O)CCN(CC(=O)O)CC2)CC1)C(=O)O)C(=O)O [177Lu-HTK03149, metal not drawn]
A: 0.04 %ID/g

Q: Output tissue uptake at 72 h of COc1ccc(CCCC(=O)NCC(=O)N[C@@H](CCCCNC(=O)CN2CCN(CC(=O)O)CCN(CC(=O)O)CCN(CC(=O)O)CC2)C(=O)NC[C@H]2CC[C@H](C(=O)N[C@@H](Cc3c4ccccc4cc4ccccc34)C(=O)NCCCC[C@H](NC(=O)N[C@@H](CCCC(=O)O)C(=O)O)C(=O)O)CC2)cc1 [177Lu-HTK03170, metal not drawn]
A: 0.04 %ID/g

Q: Output tissue uptake at 72 h of COc1ccc(CCCC(=O)NCC(=O)N[C@@H](CCCCNC(=O)CN2CCN(CC(=O)O)CCN(CC(=O)O)CCN(CC(=O)O)CC2)C(=O)NC[C@H]2CC[C@H](C(=O)N[C@@H](Cc3c4ccccc4cc4ccccc34)C(=O)NCCCC[C@H](NC(=O)N[C@@H](CSCC(=O)O)C(=O)O)C(=O)O)CC2)cc1 [177Lu-HTK04048, metal not drawn]
A: 0.08 %ID/g

Q: Output tissue uptake at 72 h of O=C(O)CCC[C@H](NC(=O)N[C@@H](CCCCNC(=O)[C@H](Cc1c2ccccc2cc2ccccc12)NC(=O)[C@H]1CC[C@H](CNC(=O)[C@H](CCCCNC(=O)CN2CCN(CC(=O)O)CCN(CC(=O)O)CCN(CC(=O)O)CC2)NC(=O)CNC(=O)CCCc2ccc(Cl)cc2)CC1)C(=O)O)C(=O)O [177Lu-HTK03153, metal not drawn]
A: 0.3 %ID/g

---

assay: in vivo; conditions: male, NODSCID 1L2RγKO, mouse, iv, total radioactivity, Seminal uptake
PARAMETER_MEASURED: tissue uptake at 1 h (%ID/g)
Quick note: give the figure in %ID/g, leave out the unit.

O=C(O)CC[C@H](NC(=O)N[C@@H](CCCCNC(=O)[C@H](Cc1c2ccccc2cc2ccccc12)NC(=O)[C@H]1CC[C@H](CNC(=O)CN2CCN(CC(=O)O)CCN(CC(=O)O)CCN(CC(=O)O)CC2)CC1)C(=O)O)C(=O)O [68Ga-HTK03041, metal not drawn] | 1.03
O=C(O)CSC[C@H](NC(=O)N[C@@H](CCCCNC(=O)[C@H](Cc1c2ccccc2cc2ccccc12)NC(=O)[C@H]1CC[C@H](CNC(=O)CN2CCN(CC(=O)O)CCN(CC(=O)O)CCN(CC(=O)O)CC2)CC1)C(=O)O)C(=O)O [68Ga-HTK03177, metal not drawn] | 0.28
O=C(O)CCC[C@H](NC(=O)N[C@@H](CCCCNC(=O)[C@H](Cc1ccc2ccccc2c1)NC(=O)[C@H]1CC[C@H](CNC(=O)CN2CCN(CC(=O)O)CCN(CC(=O)O)CCN(CC(=O)O)CC2)CC1)C(=O)O)C(=O)O [68Ga-HTK03169, metal not drawn] | 3.83
O=C(O)CCC[C@H](NC(=O)N[C@@H](CCCCNC(=O)[C@H](Cc1c2ccccc2cc2ccccc12)NC(=O)c1ccc(NC(=O)CN2CCN(CC(=O)O)CCN(CC(=O)O)CCN(CC(=O)O)CC2)cc1)C(=O)O)C(=O)O [68Ga-HTK04041, metal not drawn] | 1.68

Q: Output tissue uptake at 1 h of O=C(O)CCC[C@H](NC(=O)N[C@@H](CCCCNC(=O)[C@H](Cc1cccc(I)c1)NC(=O)[C@H]1CC[C@H](CNC(=O)CN2CCN(CC(=O)O)CCN(CC(=O)O)CCN(CC(=O)O)CC2)CC1)C(=O)O)C(=O)O [68Ga-HTK04053, metal not drawn]
A: 7.61

---

experiment: in vivo; settings: male, NODSCID 1L2RγKO, mouse, iv, total radioactivity, Intestine uptake
Decide using tissue uptake at 1 h alone. Strictly below 0.3 %ID/g: Fulfilled. Equal to or above 0.3 %ID/g: Not fulfilled.

# example entries with known answers
O=C(O)CC[C@H](NC(=O)N[C@@H](CCCCNC(=O)[C@H](Cc1c2ccccc2cc2ccccc12)NC(=O)[C@H]1CC[C@H](CNC(=O)CN2CCN(CC(=O)O)CCN(CC(=O)O)CCN(CC(=O)O)CC2)CC1)C(=O)O)C(=O)O [68Ga-HTK03041, metal not drawn] | Not fulfilled
O=C(O)CN1CCN(CC(=O)O)CCN(CC(=O)NC[C@H]2CC[C@H](C(=O)N[C@@H](Cc3c4ccccc4cc4ccccc34)C(=O)NCCCC[C@H](NC(=O)N[C@@H](C[C@@H](F)C(=O)O)C(=O)O)C(=O)O)CC2)CCN(CC(=O)O)CC1 [68Ga-HTK04033, metal not drawn] | Fulfilled
O=C(O)CCC[C@H](NC(=O)N[C@@H](CCCCNC(=O)[C@H](Cc1c2ccccc2cc2ccccc12)NC(=O)Cc1cccc(CNC(=O)CN2CCN(CC(=O)O)CCN(CC(=O)O)CCN(CC(=O)O)CC2)c1)C(=O)O)C(=O)O [68Ga-HTK04037, metal not drawn] | Fulfilled

Here's the next entry for you.
Q: Take the molecule O=C(O)C[C@H](NC(=O)N[C@@H](CCCCNC(=O)[C@H](Cc1c2ccccc2cc2ccccc12)NC(=O)[C@H]1CC[C@H](CNC(=O)CN2CCN(CC(=O)O)CCN(CC(=O)O)CCN(CC(=O)O)CC2)CC1)C(=O)O)C(=O)O [68Ga-HTK03161, metal not drawn] and say whether its tissue uptake at 1 h is less than 0.3 %ID/g.
A: Not fulfilled
